- Tested on: PSN-1
- methodNotes: Cell viability assay (ATP-Lite), PSN-1
- Format: cell-based
- conditionSummary: Homo sapiens, PSN1; PSN-1, 96 hours
- Protocol: All cell lines were cultured in media as recommended by American Type Culture Collection (“ATCC”; supplemented with 10% fetal bovine serum (“FBS”) and 1% penicillin/streptomycin (100 IU/ml pencillin and 100 μg/ml streptomycin) at 37° C. and 5% CO2. The cell lines used in these studies included those indicated in Table II below. […] IC50 values are determined using GraphPad Prism 5 software. […]
experimentalReadout: IC50 (nM)
Give just the number in nM; leave the unit off.

Record `Cc1cnc(Nc2ccc(CN3CCN(C)CC3)cc2)nc1-c1cccc(Cl)c1` . Reported IC50: 2660

Record `CN1CCN(Cc2ccc(Nc3ncc(Cl)c(Nc4ccccc4C(=O)NC4CC4)n3)cc2)CC1` . Reported IC50: 64

Record `Cc1cnc(Nc2ccc(CN3CCN(C)CC3)cc2)nc1-c1ccc(C(C)(C)C#N)cc1` . Reported IC50: 2550

====

- assayedTarget: recombinant human Axl kinase (catalytic domain, amino acids 473-894) (Homo sapiens)
- Construct: catalytic domain, amino acids 473-894; purchased Invitrogen Corporation, Carlsbad, Calif
- Sequence (P30530 473-894): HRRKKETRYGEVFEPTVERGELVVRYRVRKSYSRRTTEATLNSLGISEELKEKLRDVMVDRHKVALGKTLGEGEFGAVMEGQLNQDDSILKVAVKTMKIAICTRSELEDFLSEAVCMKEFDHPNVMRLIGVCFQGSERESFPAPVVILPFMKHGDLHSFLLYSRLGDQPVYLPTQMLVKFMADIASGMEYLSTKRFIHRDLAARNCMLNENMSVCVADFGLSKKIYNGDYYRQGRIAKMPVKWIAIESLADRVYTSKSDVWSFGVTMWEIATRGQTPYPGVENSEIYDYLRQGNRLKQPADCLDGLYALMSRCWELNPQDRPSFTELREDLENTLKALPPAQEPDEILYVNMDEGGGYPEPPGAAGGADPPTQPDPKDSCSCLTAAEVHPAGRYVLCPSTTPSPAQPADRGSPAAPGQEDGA
- methodNotes: Axl kinase activity assay (TR-FRET, fluorescein poly-GT substrate)
- Assay type: biochemical
- conditionSummary: 20 μM ATP, 93 ng/ml Axl kinase, 60 min; read-out: IC50 (Axl kinase activity)
experimentalReadout: IC50 (nM)
Give just the number in nM; leave the unit off.

CN1CCN(Cc2ccc(Nc3ncc(Cl)c(Nc4ccccc4C(=O)N(C)C)n3)cc2)CC1	88
CN1CCC(N(C)c2ccc(Nc3ncc(Cl)c(Nc4ccccc4S(=O)(=O)N(C)C)n3)cc2)CC1	56

Record `CN1CCN(Cc2ccc(Nc3ncc(Cl)c(Nc4ccccc4C(=O)N4CCCC4)n3)cc2)CC1` . Reported IC50: 61

====

- System: PL45
- methodNotes: Cell viability assay (ATP-Lite), PL45
- Format: cell-based
- conditionSummary: Homo sapiens; PL45, 96 hours
experimentalReadout: pIC50
// pIC50: -log10(molar conc.)

Worked set:
CN1CCN(Cc2ccc(Nc3ncc(Cl)c(-c4ccc(F)cc4S(=O)(=O)N4CCCC4)n3)cc2)CC1 [Compound 9]	6.37
CN1CCN(Cc2ccc(Nc3ncc(Cl)c(Nc4ccccc4S(=O)(=O)N(C)C)n3)cc2)CC1 [Compound 4]	7.32

Pending compound:
Record CN1CCC(N(C)c2ccc(Nc3ncc(Cl)c(Nc4ccccc4S(=O)(=O)N(C)C)n3)cc2)CC1 [Compound 5] . Reported pIC50: 6.43

====

- Test system: PSN-1
- methodNotes: Cell viability assay (ATP-Lite), PSN-1
- Format: cell-based
- conditionSummary: Homo sapiens, PSN1; PSN-1, 96 hours
pIC50: −log10 of the molar value.
Threshold rule: pIC50 greater than or equal to 7 is t; below that, f.

Take a look at these entries with their results.
CN1CCN(Cc2ccc(Nc3ncc(Cl)c(Nc4ccc(F)cc4S(=O)(=O)N4CCCC4)n3)cc2)CC1	t
CN1CCN(Cc2ccc(Nc3ncc(Cl)c(-c4ccc(F)cc4S(=O)(=O)N4CCCC4)n3)cc2)CC1	f
CN1CCN(Cc2ccc(Nc3ncc(Cl)c(Nc4ccccc4C(=O)N4CCCC4)n3)cc2)CC1	t
Cc1cnc(Nc2ccc(CN3CCN(C)CC3)cc2)nc1-c1ccc(F)c(Cl)c1	f
CN1CCN(Cc2ccc(Nc3ncc(Cl)c(Nc4ccccc4S(=O)(=O)N4CCCC4)n3)cc2)CC1	t

Let us examine a further case.
stdin: Assess whether reported pIC50 for `Cc1cnc(Nc2ccc(N(C)C3CCN(C)CC3)cc2)nc1-c1ccc(F)c(Cl)c1` sits at 7 or higher.
stdout: f
